# Tested on: Staphylococcus aureus
# experiment-description: Mueller-Hinton agar dilution method (MIC)
# Type: cell-based
# applied-conditions: beta-lactamase negative, strain SSC 79-3, Table II, read-out: Minimal Inhibitory Concentration
measured-property: MIC (µg/mL)
# unit: µg/mL | format: bare number

Recorded MIC (molecule CO/N=C(\C(=O)N[C@@H]1C(=O)N2C(C(=O)O)=CCS[C@H]12)c1csc(N)n1 ): 1

Recorded MIC (molecule CO/N=C(\C(=O)N[C@@H]1C(=O)N2C(C(=O)O)=C(CSc3nnnn3C)CS[C@H]12)c1csc(N)n1 ): 1

Recorded MIC (molecule CO[C@@]1(NC(=O)Cc2cccs2)C(=O)N2C(C(=O)O)=C(COC(N)=O)CS[C@@H]21 ): 2

Recorded MIC (molecule CO[C@@]1(NC(=O)C(C(=O)O)c2ccc(O)cc2)C(=O)N2C(C(=O)O)=C(CSc3nnnn3C)CO[C@@H]21 (stereo partly drawn) ): 2

Recorded MIC (molecule CCN1CCN(C(=O)N[C@@H](C(=O)N[C@@H]2C(=O)N3C(C(=O)O)=C(CSc4nnnn4C)CS[C@H]23)c2ccc(O)cc2)C(=O)C1=O ): 0.5

Recorded MIC (molecule CO/N=C(\C(=O)N[C@@H]1C(=O)N2C(C(=O)O)=C(CSc3cnns3)CS[C@H]12)c1csc(N)n1 ): 0.12
